Hello, the source for this data is ChEMBL document CHEMBL1142273, in case you need it.

Quick list: Activity per entry.
organism: Homo sapiens; assay: Bronchorelaxing effect in leukotriene D4-contracted human lung small airways model assessed as remaining contraction at 10 uM relative to control; type: functional
The response must be a number in % with no trailing unit.

Reference set (5 entries):
Oc1c(O)c(Cl)c2c(c1Cl)CCN(C(=S)NCc1ccccc1)C2; 10
CC(C)(C)c1ccc(CCNC(=S)N2CCc3c(Cl)c(O)c(O)c(Cl)c3C2)cc1; 69
Oc1ccc(CCNC(=S)N2CCc3c(Cl)c(O)c(O)c(Cl)c3C2)cc1; 22
CC(C)(C)c1ccc(CCNC(=S)N2CCCc3cc(O)c(O)cc3C2)cc1; 80
Oc1c(O)c(Cl)c2c(c1Cl)CCN(C(=S)NCCc1ccccc1)C2; 8

Q) Item under review: "Oc1cc2c(cc1O)CN(C(=S)NCCc1ccccc1)CCC2" . Reported Activity?
A) 71

Q) Item under review: "Oc1c(O)c(Cl)c2c(c1Cl)CCN(C(=S)NCCCc1ccccc1)C2" . Reported Activity?
A) 11
